Source of measurements: a collection of fitness landscapes (doi:10.1016/j.celrep.2020.107928)

B1: Caulobacter ParB omega fusion; a variant is named by its letters at X, in order, B8GW30 (parent)
chain: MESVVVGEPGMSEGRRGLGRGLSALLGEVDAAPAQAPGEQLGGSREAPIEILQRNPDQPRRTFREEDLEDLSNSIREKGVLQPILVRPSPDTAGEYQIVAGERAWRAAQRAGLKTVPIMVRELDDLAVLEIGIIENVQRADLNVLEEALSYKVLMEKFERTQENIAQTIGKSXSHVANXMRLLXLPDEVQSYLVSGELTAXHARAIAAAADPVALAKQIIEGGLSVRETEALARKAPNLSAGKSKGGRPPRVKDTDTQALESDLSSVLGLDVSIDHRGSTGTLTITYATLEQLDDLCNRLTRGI

Variants of: B1
Assay: one-hybrid fitness for binding parS DNA (scaled: cognate 1, non-cognate 0); higher = stronger binding
Settings: with parS DNA site
Over roughly 81,000 sequences, “one-hybrid fitness for binding parS DNA” has its median near -0.17; the highest 2% begin near 0.51. Shown is part of a subset that was picked to be rich in the highest values.
property: one-hybrid fitness for binding parS DNA

**Q:** Consider the variant `RFEC` and give its measured one-hybrid fitness for binding parS DNA.
**A:** 0.727
